Values were extracted from patent US20120148607A1.

target: T1, Rhesus (Maccaca mulatta, US20090191580-5) c-Met ECD (Rhesus (Maccaca mulatta)); experiment: binding ELISA, Rhesus c-Met ECD immobilised (1 µg/ml)
T1 construct: extracellular domain; also called Rhesus c-Met ECD; Rhesus ECD
Please go through the items and note down their EC50.
Give a bare numeral; the unit nM is implied.

## Input Item 40B8 mAb (antibody, V domains shown) VH: EVQLVQPGAELRNPGASVKVSCKASGYTFTNYVIDWVRQAPGQGLEWMGRIDPENGGTRYAQKFQGRVTFTADTSTSTAYVELSNLRSEDTAVYYCARLEDYELAYDYWGQGTQVTVSS VL: DIVMTQTPSSVTASAGEKVTINCKSSQSVLLSSNQKNYLAWYQQRLGQSPRLLIYWASTRESGVPDRFSGSGSTTDFTLTISSFQPEDAAVYYCQQGVSFPLTFGQGTKVELK : provide EC50
## Output 0.13

## Input Quickly give me recorded EC50 for 13E6 mAb (antibody, V domains shown) VH: QVQLQESGGDLVQPGGSLRLSCAASGFTFDDYVMNWVRQAPGKGLEWISAINWNGGSTYYAESMKGRFTISRDNAKNTLYLQMYSLQSDDTAVYYCVKDTVVSGNGYWGQGTQVTVSS VL: QSVLTQPPSVSGTLGKTVTISCAGTSSDIGDYNYVSWYQQLPGTAPKLLIYDVNKRASGIPDRFSGSKSGNTASLSISGLQSEDEADYYCASYRSRNDYAFGGGTKLTVL
## Output 0.19
